Record set: log10(Ki) | Glutamate receptor ionotropic, kainate 2 (Homo sapiens, UniProt Q13002) | literature, multiple sources.
Answers are given as log10 of Ki in µM.

Previously resolved entries follow.
O=C(O)Cn1c(=O)c(=O)[nH]c2cc([N+](=O)[O-])c(-n3ccc(CN4CCN(Cc5ccccc5)CC4)c3)cc21 :: 0.61
N[C@@H](C/C(=C\c1ccc(Cl)cc1)C(=O)O)C(=O)O :: 2.29
O=C(O)Cn1c(=O)c(=O)[nH]c2cc([N+](=O)[O-])c(-n3ccc(CN4CCC(c5ccccc5)CC4)c3)cc21 :: 0.56
CC(C)C/C=C(\C[C@H](N)C(=O)O)C(=O)O :: 2.80
CCCC/C=C(/C[C@H](N)C(=O)O)C(=O)O :: 2.10
N[C@@H](C/C(=C\CCc1ccccc1)C(=O)O)C(=O)O :: 2.31

Please give log10(Ki) for each item listed below.
1. CC/C=C(/C[C@H](N)C(=O)O)C(=O)O
2. O=C(O)c1ccccc1/C=C/c1ccc2[nH]c(=O)c(=O)[nH]c2c1

Response line:
[1.26, 0.40]

###

Record set: log10 of Ki | Glutamate receptor ionotropic, kainate 2 (Homo sapiens) | literature, multiple sources.
Answers are given as log10 of Ki in µM.

Please give log10 of Ki for each item listed below.
1. N[C@@H](CC(C(=O)O)=C1CCCCC1)C(=O)O
2. O=C(O)Cn1c(=O)c(=O)[nH]c2cc([N+](=O)[O-])c(-n3ccc(CNCCCc4ccccc4)c3)cc21

Response line:
1: 2.41; 2: 0.79

Please give log10 of Ki for each item listed below.
1. O=C(O)Cn1c(=O)c(=O)[nH]c2cc([N+](=O)[O-])c(-n3ccc(CN4CCCCC4)c3)cc21
2. CN(Cc1ccccc1)Cc1ccn(-c2cc3c(cc2[N+](=O)[O-])[nH]c(=O)c(=O)n3CCC(=O)O)c1
3. O=C(Nn1c(=O)c(=O)[nH]c2cc(C#Cc3ccccc3)ccc21)c1ccccc1

Response line:
1.45
1.36
2.00
